test system: NIH Swiss mice fed a high-fat diet for 150 days; assay: Acute and delayed i.p. glucose tolerance test, blood glucose and plasma insulin; type: in vivo; details: following a 8 h delay, 25 nmol/kg
property: Blood glucose as percent of glucose-alone control (lower = stronger glucose lowering) (% ^)

compound	target.system	value.units	endpoint.result
CSCC[C@H](NC(=O)[C@@H]1CCCN1C(=O)CNC(=O)[C@H](CCCCN)NC(=O)[C@H](Cc1c[nH]cn1)NC(=O)[C@H](CO)NC(=O)[C@H](CC(C)C)NC(=O)[C@H](CCCNC(=N)N)NC(=O)[C@@H]1CCCN1C(=O)[C@H](CCCNC(=N)N)NC(=O)[C@@H](N)CCC(N)=O)C(=O)N1CCC[C@H]1C(=O)N[C@@H](Cc1ccc(O)cc1)C(=O)O [(Tyr^13)apelin-13]	NIH Swiss mice fed a high-fat diet for 150 days	% ^	91
CSCC[C@H](NC(=O)[C@@H]1CCCN1C(=O)CNC(=O)[C@H](CCCCN)NC(=O)[C@H](Cc1c[nH]cn1)NC(=O)[C@H](CO)NC(=O)[C@H](CC(C)C)NC(=O)[C@H](CCCNC(=N)N)NC(=O)[C@@H]1CCCN1C(=O)[C@H](CCCNC(=N)N)NC(=O)[C@@H](N)CCC(N)=O)C(=O)N1CCC[C@H]1C(=O)N[C@@H](Cc1ccccc1)C(N)=O [Apelin-13-amide]	NIH Swiss mice fed a high-fat diet for 150 days	% ^	88

----------
Known half-life at 263 µg/mL of a selection of compounds
experiment: Degradation of apelin peptides by plasma from fasted normal NIH Swiss mice (rp-HPLC, MALDI-TOF MS); type: in vitro ADME; conditions: NIH Swiss, mouse, plasma, pH 7.4

compound	value.units	half-life at 263 µg/mL
CSCC[C@H](NC(=O)[C@@H]1CCCN1C(=O)CNC(=O)[C@H](CCCCN)NC(=O)[C@H](Cc1cnc[nH]1)NC(=O)[C@H](CO)NC(=O)[C@H](CC(C)C)NC(=O)[C@H](CCCNC(=N)N)NC(=O)[C@@H]1CCCN1C(=O)[C@H](CCCNC(=N)N)NC(=O)[C@@H]1CCC(=O)N1)C(=O)N1CCC[C@H]1C(=O)N[C@@H](C)C(=O)O [pGlu(Ala^13)apelin-13, pGlu (Ala^13)apelin-13]	h	11.1
CSCC[C@H](NC(=O)[C@@H]1CCCN1C(=O)CNC(=O)[C@H](CCCCN)NC(=O)[C@H](Cc1c[nH]cn1)NC(=O)[C@H](CO)NC(=O)[C@H](CC(C)C)NC(=O)[C@H](CCCNC(=N)N)NC(=O)[C@@H]1CCCN1C(=O)[C@H](CCCNC(=N)N)NC(=O)[C@@H]1CCC(=O)N1)C(=O)N1CCC[C@H]1C(=O)N[C@@H](Cc1ccc(O)cc1)C(=O)O [pGlu(Tyr^13)apelin-13, pGlu (Tyr^13)apelin-13]	h	12.2

----------
tested on: NIH Swiss mice fed a high-fat diet for 150 days; assay: Acute and delayed i.p. glucose tolerance test, blood glucose and plasma insulin; assay type: in vivo; conditions: following a 2 h delay, 25 nmol/kg
property: Blood glucose as percent of glucose-alone control (lower = stronger glucose lowering)

compound	target.system	endpoint.result
CSCC[C@H](NC(=O)[C@@H]1CCCN1C(=O)CNC(=O)[C@H](CCCCN)NC(=O)[C@H](Cc1c[nH]cn1)NC(=O)[C@H](CO)NC(=O)[C@H](CC(C)C)NC(=O)[C@H](CCCNC(=N)N)NC(=O)[C@@H]1CCCN1C(=O)[C@H](CCCNC(=N)N)NC(=O)[C@@H](N)CCC(N)=O)C(=O)N1CCC[C@H]1C(=O)N[C@@H](Cc1ccccc1)C(N)=O [Apelin-13-amide]	NIH Swiss mice fed a high-fat diet for 150 days	73% (**)
CSCC[C@H](NC(=O)[C@@H]1CCCN1C(=O)CNC(=O)[C@H](CCCCN)NC(=O)[C@H](Cc1c[nH]cn1)NC(=O)[C@H](CO)NC(=O)[C@H](CC(C)C)NC(=O)[C@H](CCCNC(=N)N)NC(=O)[C@@H]1CCCN1C(=O)[C@H](CCCNC(=N)N)NC(=O)[C@@H]1CCC(=O)N1)C(=O)N1CCC[C@H]1C(=O)N[C@@H](Cc1ccccc1)C(N)=O [(pGlu)apelin-13-amide]	NIH Swiss mice fed a high-fat diet for 150 days	67% (**)
CSCC[C@H](NC(=O)[C@@H]1CCCN1C(=O)CNC(=O)[C@H](CCCCN)NC(=O)[C@H](Cc1c[nH]cn1)NC(=O)[C@H](CO)NC(=O)[C@H](CC(C)C)NC(=O)[C@H](CCCNC(=N)N)NC(=O)[C@@H]1CCCN1C(=O)[C@H](CCCNC(=N)N)NC(=O)[C@@H]1CCC(=O)N1)C(=O)N1CCC[C@H]1C(=O)N[C@@H](Cc1ccc(O)cc1)C(=O)O [pGlu(Tyr^13)apelin-13, pGlu (Tyr^13)apelin-13]	NIH Swiss mice fed a high-fat diet for 150 days	78% (**)
CSCC[C@H](NC(=O)[C@@H]1CCCN1C(=O)CNC(=O)[C@H](CCCCN)NC(=O)[C@H](Cc1c[nH]cn1)NC(=O)[C@H](CO)NC(=O)[C@H](CC(C)C)NC(=O)[C@H](CCCNC(=N)N)NC(=O)[C@@H]1CCCN1C(=O)[C@H](CCCNC(=N)N)NC(=O)[C@@H](N)CCC(N)=O)C(=O)N1CCC[C@H]1C(=O)N[C@@H](Cc1ccc(O)cc1)C(=O)O [(Tyr^13)apelin-13]	NIH Swiss mice fed a high-fat diet for 150 days	85% ^

----------
assay: Degradation of apelin peptides by plasma from fasted normal NIH Swiss mice (rp-HPLC, MALDI-TOF MS); format: in vitro ADME

line.notation	Degradation fragment, Peak 1
CSCC[C@H](NC(=O)[C@@H]1CCCN1C(=O)CNC(=O)[C@H](CCCCN)NC(=O)[C@H](Cc1cnc[nH]1)NC(=O)[C@H](CO)NC(=O)[C@H](CC(C)C)NC(=O)[C@H](CCCNC(=N)N)NC(=O)[C@@H]1CCCN1C(=O)[C@H](CCCNC(=N)N)NC(=O)[C@@H]1CCC(=O)N1)C(=O)N1CCC[C@H]1C(=O)N[C@@H](C)C(=O)O	(1-7)
CSCC[C@H](NC(=O)[C@@H]1CCCN1C(=O)CNC(=O)[C@H](CCCCN)NC(=O)[C@H](Cc1c[nH]cn1)NC(=O)[C@H](CO)NC(=O)[C@H](CC(C)C)NC(=O)[C@H](CCCNC(=N)N)NC(=O)[C@@H]1CCCN1C(=O)[C@H](CCCNC(=N)N)NC(=O)[C@@H]1CCC(=O)N1)C(=O)N1CCC[C@H]1C(=O)N[C@@H](Cc1ccc(O)cc1)C(=O)O	(1-5)
CSCC[C@H](NC(=O)[C@@H]1CCCN1C(=O)CNC(=O)[C@H](CCCCN)NC(=O)[C@H](Cc1c[nH]cn1)NC(=O)[C@H](CO)NC(=O)[C@H](CC(C)C)NC(=O)[C@H](CCCNC(=N)N)NC(=O)[C@@H]1CCCN1C(=O)[C@H](CCCNC(=N)N)NC(=O)[C@@H]1CCC(=O)N1)C(=O)N1CCC[C@H]1C(=O)N[C@H](C(=O)O)C(C)C	(1-6)

----------
Test system: NIH Swiss mice fed a high-fat diet for 150 days
Assay: Acute and delayed i.p. glucose tolerance test, blood glucose and plasma insulin
Assay type: in vivo
Conditions: acute, peptide 25 nmol/kg i.p. with glucose 18 mmol/kg, Table 4
Description: Plasma glucose and plasma insulin concentrations were measured prior to and after i.p. administration of glucose alone (18 mmol/kg body weight), or in combination with apelin analogues (25 nmol/kg body weight) in 18 h fasted mice fed a high-fat diet for 150 days. […] (A) Blood glucose and (B) plasma insulin was measured before and after i.p. administration of glucose (18 mmol/kg body wt) alone or in combination with apelin analogues. […]
Known Insulin secretion, where glucose alone = 100% of a selection of molecules
property: Insulin secretion, where glucose alone = 100%

molecule	endpoint.result
CSCC[C@H](NC(=O)[C@@H]1CCCN1C(=O)CNC(=O)[C@H](CCCCN)NC(=O)[C@H](Cc1c[nH]cn1)NC(=O)[C@H](CO)NC(=O)[C@H](CC(C)C)NC(=O)[C@H](CCCNC(=N)N)NC(=O)[C@@H]1CCCN1C(=O)[C@H](CCCNC(=N)N)NC(=O)[C@@H](N)CCC(N)=O)C(=O)N1CCC[C@H]1C(=O)N[C@H](C(=O)O)C(C)C	68% (*)
CSCC[C@H](NC(=O)[C@@H]1CCCN1C(=O)CNC(=O)[C@H](CCCCN)NC(=O)[C@H](Cc1c[nH]cn1)NC(=O)[C@H](CO)NC(=O)[C@H](CC(C)C)NC(=O)[C@H](CCCNC(=N)N)NC(=O)[C@@H]1CCCN1C(=O)[C@H](CCCNC(=N)N)NC(=O)[C@@H]1CCC(=O)N1)C(=O)N1CCC[C@H]1C(=O)N[C@@H](Cc1ccc(O)cc1)C(=O)O	138% (**)
CSCC[C@H](NC(=O)[C@@H]1CCCN1C(=O)CNC(=O)[C@H](CCCCN)NC(=O)[C@H](Cc1c[nH]cn1)NC(=O)[C@H](CO)NC(=O)[C@H](CC(C)C)NC(=O)[C@H](CCCNC(=N)N)NC(=O)[C@@H]1CCCN1C(=O)[C@H](CCCNC(=N)N)NC(=O)[C@@H]1CCC(=O)N1)C(=O)N1CCC[C@H]1C(=O)N[C@@H](Cc1ccccc1)C(N)=O [(pGlu)apelin-13-amide]	159% (***)
